biological target: BRD4 (BDI_K57-E168) (Homo sapiens (Human), UniProt O60885); experiment: TR-FRET bromodomain binding assay, BRD4 first bromodomain; conditions: His-tagged BD1, Alexa647-labeled probe 100 nM
pKi: −log10 of the molar value.
Property: pKi

[[record]]
molecule = "CCS(=O)(=O)Nc1cc(-c2cn(C)c(=O)c3[nH]ccc23)c(Oc2ccc(F)cc2F)cc1CN1CCOCC1 [Example 4]"
property = "pKi"
observed_measurement = 7.96

[[record]]
molecule = "Cn1cc(-c2cc(S(C)(=O)=O)ccc2Oc2ccc(F)cc2F)c2cc(CN3CCN(c4ccccn4)CC3)[nH]c2c1=O [Example 132]"
property = "pKi"
observed_measurement = 7.57


a. CCS(=O)(=O)Nc1cc(-c2cn(C)c(=O)c3[nH]ccc23)c(Oc2ccc(F)cc2F)cc1C(=O)NC1CCCC1 [Example 9]
b. CC(=O)Nc1ccc(CN[C@H]2CC[C@H](Nc3ccc(S(C)(=O)=O)cc3-c3cn(C)c(=O)c4[nH]ccc34)CC2)cc1 [Example 108]
[ask] I'm curious whether a or b has the smaller pKi number. Which is it? Kindly state the label of the option you pick.
[reply] b
(b: 8.47, a: 8.77)

----------
target: BRD4 (BDII_E352-M457) (Homo sapiens (Human), UniProt O60885); assay: TR-FRET bromodomain binding assay, BRD4 second bromodomain; conditions: His-tagged BD2, Alexa647-labeled probe 30 nM
Property: Ki (nM)

Some compounds with known Ki results, for comparison:
[[record]]
structure = "Cn1cc(-c2cc(S(C)(=O)=O)ccc2Oc2cccc(C(=O)NCc3cc(F)cc(F)c3)c2)c2cc[nH]c2c1=O"
property = "Ki"
observed_measurement = 5.7

[[record]]
structure = "CN(C)CCN1CCN(C(=O)c2cccc(Oc3ccc(S(C)(=O)=O)cc3-c3cn(C)c(=O)c4[nH]ccc34)c2)CC1"
property = "Ki"
observed_measurement = 9.1

[[record]]
structure = "CCNC(=O)c1cc2c(-c3ccc(C(=O)N(CCCN(C)C)C4CCCCC4)cc3Oc3c(C)cccc3C)cn(C)c(=O)c2[nH]1"
property = "Ki"
observed_measurement = 6.66


A. Cc1cccc(C)c1Oc1ccc(S(C)(=O)=O)cc1-c1cn(C)c(=O)c2[nH]c(C(=O)NCCCN(C)C3CCCCC3)cc12
B. CCNC(=O)c1cc2c(-c3ccc(C(=O)N(CCN(CC)CC)c4ccccc4C)cc3Oc3c(C)cccc3C)cn(C)c(=O)c2[nH]1
C. COc1cc(CN2CCC(Nc3ccc(S(C)(=O)=O)cc3-c3cn(C)c(=O)c4[nH]ccc34)CC2)cc(OC)c1OC
D. CCS(=O)(=O)Nc1cc(-c2cn(C)c(=O)c3[nH]ccc23)c(Oc2ccc(F)cc2F)cc1CN1CCN(C)CC1
[ask] Sort entries by Ki from minimum to maximum value. Answer by listing the labels in the order asked for.
[reply] D, A, B, C
(D: 1.7 nM, A: 2.52 nM, B: 4.22 nM, C: 23 nM)

P. Cn1cc(-c2cc(S(C)(=O)=O)ccc2Oc2cccc(NCc3cccc(F)c3)c2)c2cc[nH]c2c1=O
Q. CCS(=O)(=O)Nc1cc(-c2cn(C)c(=O)c3[nH]ccc23)c(Oc2ccc(F)cc2F)cc1C(=O)NC1CCOCC1
[ask] I need your help: which of the pair P , Q has higher Ki? Pick one and reply with its label.
[reply] P
(P: 4.7 nM, Q: 1.6 nM)

1. CCNC(=O)c1cc2c(-c3ccc(C(=O)N(CCC#N)c4cccc(Cl)c4)cc3Oc3c(C)cccc3C)cn(C)c(=O)c2[nH]1
2. Cn1cc(-c2cc(S(C)(=O)=O)ccc2Oc2cccc(NS(=O)(=O)c3ccccc3C#N)c2)c2cc[nH]c2c1=O
[ask] Of 1 and 2 , whose reported Ki is the larger number? # respond with the chosen item's label
[reply] 1

A. Cn1cc(-c2cc(S(C)(=O)=O)ccc2Oc2cccc(C(=O)NCc3ccc(F)cc3F)c2)c2cc[nH]c2c1=O
B. CCNC(=O)c1cc2c(-c3cc(S(=O)(=O)CC)ccc3Oc3c(C)cccc3Cn3cccn3)cn(C)c(=O)c2[nH]1
[ask] Choose between A and B : whose measured Ki value is numerically larger? Reply with the label of the item you choose.
[reply] B

----------
target: BRD4 (BDI_K57-E168) (Homo sapiens (Human)); test: TR-FRET bromodomain binding assay, BRD4 first bromodomain; details: His-tagged BD1, Alexa647-labeled probe 100 nM
pKi: −log10 of the molar value.
Property: pKi

A selection of reference data follows.
[[record]]
compound = "CCS(=O)(=O)Nc1cc(-c2cn(C)c(=O)c3[nH]ccc23)c(Oc2ccc(F)cc2F)cc1C(=O)NC1CCOCC1 [Example 12]"
observed_measurement = 8.74

[[record]]
compound = "CCS(=O)(=O)c1ccc(OCC2CC2(F)F)c(-c2cn(C)c(=O)c3[nH]c(CN4CCN(c5cnccn5)CC4)cc23)c1 (stereo not drawn) [Example 18]"
observed_measurement = 8.36

[[record]]
compound = "Cn1cc(-c2cc(S(C)(=O)=O)ccc2Oc2cccc(C(=O)N3CCN(CCO)CC3)c2)c2cc[nH]c2c1=O [Example 26]"
observed_measurement = 7.57


A. Cc1cccc(C)c1Oc1ccc(S(C)(=O)=O)cc1-c1cn(C)c(=O)c2[nH]c(-c3nc(C4CC4)no3)cc12 [Example 135]
B. Cn1cc(-c2cc(S(C)(=O)=O)ccc2Oc2cccc(NS(=O)(=O)c3cccc(F)c3)c2)c2cc[nH]c2c1=O [Example 40]
[ask] Compare A and B by numeric pKi and name the larger one. Answer format: the label of the selected item.
[reply] B

1. CCS(=O)(=O)Nc1cc(-c2cn(C)c(=O)c3[nH]ccc23)c(Oc2ccc(F)cc2F)cc1CO [Example 6]
2. CCS(=O)(=O)Nc1cc(-c2cn(C)c(=O)c3[nH]ccc23)c(Oc2ccc(F)cc2F)c(C2CC2)c1 [Example 15]
[ask] // which entry has the larger pKi value, 1 or 2 ? # reply format: chosen label
[reply] 2

----------
biological target: BRD4 (BDI_K57-E168) (Homo sapiens (Human)); test: TR-FRET bromodomain binding assay, BRD4 first bromodomain; settings: His-tagged BD1, Alexa647-labeled probe 100 nM
pKi: −log10 of the molar value.
Property: pKi

[[record]]
molecule = "Cn1cc(-c2cc(S(C)(=O)=O)ccc2N[C@H]2CC[C@H](NCc3cccs3)CC2)c2cc[nH]c2c1=O [Example 107]"
observed_measurement = 8.52


I. CCNC(=O)c1cc2c(-c3cc(S(=O)(=O)CC)ccc3Oc3c(C)cccc3CN3CCCCC3)cn(C)c(=O)c2[nH]1 [Example 147]
II. Cn1cc(-c2cc(S(C)(=O)=O)ccc2Oc2cccc(NS(=O)(=O)c3cccc(OC(F)F)c3)c2)c2cc[nH]c2c1=O [Example 48]
[ask] Between the entries labelled I and II , which has a larger pKi value on record? Your choice should be expressed through its label.
[reply] II

P. CCS(=O)(=O)Nc1cc(-c2cn(C)c(=O)c3[nH]ccc23)c(Oc2ccc(F)cc2F)cc1C(=O)O [Example 11]
Q. CCS(=O)(=O)c1ccc(OCC2CC2(F)F)c(-c2cn(C)c(=O)c3[nH]c(CN4CCN(c5ccncc5)CC4)cc23)c1 (stereo not shown) [Example 16]
R. COc1cccc(S(=O)(=O)Nc2cccc(Oc3ccc(S(C)(=O)=O)cc3-c3cn(C)c(=O)c4[nH]ccc34)c2)c1 [Example 42]
[ask] In this exercise, place the 3 molecules in ascending sequence of their recorded pKi. Give the order by naming the labels one after another as requested.
[reply] R, Q, P
(R: 8.04, Q: 8.60, P: 9.10)

----------
biological target: BRD4 (BDII_E352-M457) (Homo sapiens (Human), UniProt O60885); experiment: TR-FRET bromodomain binding assay, BRD4 second bromodomain; details: His-tagged BD2, Alexa647-labeled probe 30 nM
pKi: −log10 of the molar value.
Property: pKi

Solved entries:
[[record]]
compound = "CCS(=O)(=O)Nc1cc(-c2cn(C)c(=O)c3[nH]ccc23)c(Oc2ccc(F)cc2F)c(C2CC2)c1 [Example 15]"
property = "pKi"
observed_measurement = 8.59

[[record]]
compound = "Cc1cccc(C)c1Oc1ccc(S(C)(=O)=O)cc1-c1cn(C)c(=O)c2[nH]c(-c3nc(-c4cccnc4)no3)cc12 [Example 138]"
property = "pKi"
observed_measurement = 8.13

[[record]]
compound = "Cn1cc(-c2cc(S(C)(=O)=O)ccc2Oc2ccc(F)cc2F)c2cc(CN3CCN(c4nccs4)CC3)[nH]c2c1=O [Example 114]"
property = "pKi"
observed_measurement = 7.09


A. CC(=O)Nc1ccc(CN[C@H]2CC[C@H](Nc3ccc(S(C)(=O)=O)cc3-c3cn(C)c(=O)c4[nH]ccc34)CC2)cc1 [Example 108]
B. Cn1cc(-c2cc(S(C)(=O)=O)ccc2Oc2cccc(NS(=O)(=O)c3cccc(F)c3)c2)c2cc[nH]c2c1=O [Example 40]
[ask] I'm curious, which of these has a smaller pKi number: A or B ? Answer = label.
[reply] A
(A: 8.25, B: 8.70)

A. CCS(=O)(=O)Nc1cc(-c2cn(C)c(=O)c3[nH]ccc23)c(Oc2ccc(F)cc2F)cc1CNC1CCCC1 [Example 7]
B. CN1CCN(CC(=O)N2CCC(Nc3ccc(S(C)(=O)=O)cc3-c3cn(C)c(=O)c4[nH]ccc34)CC2)CC1 [Example 96]
C. CCNC(=O)c1cc2c(-c3cc(S(=O)(=O)CC)ccc3Oc3c(C)cccc3Cn3ccnc3)cn(C)c(=O)c2[nH]1 [Example 150]
D. CN(C)C(=O)C1(N2CCCC2=O)CCN(Cc2cc3c(-c4cc(S(C)(=O)=O)ccc4Oc4ccc(F)cc4F)cn(C)c(=O)c3[nH]2)CC1 [Example 155]
[ask] Rank by pKi (largest to smallest). The response must list the labels following the requested ordering.
[reply] A, B, C, D

P. Cc1ccc(CNc2cccc(Oc3ccc(S(C)(=O)=O)cc3-c3cn(C)c(=O)c4[nH]ccc34)c2)c(C)c1 [Example 70]
Q. Cn1cc(-c2cc(S(C)(=O)=O)ccc2Oc2ccc(F)cc2F)c2cc(CN3CCCN(c4ccccn4)CC3)[nH]c2c1=O [Example 126]
[ask] Between P and Q , which one has the lower reported pKi value? Reply briefly: the label of your chosen item.
[reply] Q
